Answer each item with its documented Off-rate ELISA (normalized to XAB1 Fab).
- system.name: T1, human IL-17A (construct not specified) (human, UniProt Q16552 24-155, limits assumed)
- T1 construct: also called huIL-17A
- T1 sequence: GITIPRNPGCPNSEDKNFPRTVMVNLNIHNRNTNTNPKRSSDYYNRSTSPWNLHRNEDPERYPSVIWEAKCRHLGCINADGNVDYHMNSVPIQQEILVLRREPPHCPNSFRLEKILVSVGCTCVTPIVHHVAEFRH
- run.description: ELISA, coated huIL-17A, long wash
The figure you give is taken to be in fold; do not add the unit.

Exercise: # return recorded Off-rate ELISA (normalized to XAB1 Fab) for input MB457 (Fab, V domains shown, Fab variant of XAB1) VH: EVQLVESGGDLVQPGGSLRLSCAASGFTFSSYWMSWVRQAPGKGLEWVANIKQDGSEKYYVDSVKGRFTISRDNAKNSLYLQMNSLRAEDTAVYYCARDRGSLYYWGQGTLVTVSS VL: AIQLTQSPSSLSASVGDRVTITCRPSQGIIWSLAWYQQKPGKAPKLLIYDASSLENGVPSRFSGSGSGTDFTLTISSLQPEDFATYYCQQFNSYPLTFGGGTKVEIK
Solution: 34.7

Exercise: # return recorded Off-rate ELISA (normalized to XAB1 Fab) for input MB486 (Fab, V domains shown, Fab variant of XAB1) VH: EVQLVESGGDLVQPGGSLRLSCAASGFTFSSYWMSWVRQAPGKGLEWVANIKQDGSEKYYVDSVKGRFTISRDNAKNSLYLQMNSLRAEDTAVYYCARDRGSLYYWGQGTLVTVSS VL: AIQLTQSPSSLSASVGDRVTITCRPSQGIWWMLAWYQQKPGKAPKLLIYDASSLENGVPSRFSGSGSGTDFTLTISSLQPEDFATYYCQQFNSYPLTFGGGTKVEIK
Solution: 58.5

Exercise: # return recorded Off-rate ELISA (normalized to XAB1 Fab) for input MB438 (Fab, V domains shown, Fab variant of XAB1) VH: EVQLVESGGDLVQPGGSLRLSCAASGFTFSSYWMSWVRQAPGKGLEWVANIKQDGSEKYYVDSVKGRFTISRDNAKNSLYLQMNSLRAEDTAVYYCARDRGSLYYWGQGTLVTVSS VL: AIQLTQSPSSLSASVGDRVTITCRPSQGIPYALAWYQQKPGKAPKLLIYDASSLENGVPSRFSGSGSGTDFTLTISSLQPEDFATYYCQQFNSYPLTFGGGTKVEIK
Solution: 41.5

Exercise: # return recorded Off-rate ELISA (normalized to XAB1 Fab) for input MB448 (Fab, V domains shown, Fab variant of XAB1) VH: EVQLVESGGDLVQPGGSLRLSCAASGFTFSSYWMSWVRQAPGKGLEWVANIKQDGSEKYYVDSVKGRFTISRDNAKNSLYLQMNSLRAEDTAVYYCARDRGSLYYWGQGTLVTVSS VL: AIQLTQSPSSLSASVGDRVTITCRPSQGIVWMLAWYQQKPGKAPKLLIYDASSLENGVPSRFSGSGSGTDFTLTISSLQPEDFATYYCQQFNSYPLTFGGGTKVEIK
Solution: 40.4

Exercise: # return recorded Off-rate ELISA (normalized to XAB1 Fab) for input MB450 (Fab, V domains shown, Fab variant of XAB1) VH: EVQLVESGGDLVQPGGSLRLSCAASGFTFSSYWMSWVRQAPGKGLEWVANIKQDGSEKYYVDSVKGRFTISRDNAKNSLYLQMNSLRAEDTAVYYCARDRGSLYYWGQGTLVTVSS VL: AIQLTQSPSSLSASVGDRVTITCRPSQGIMWWLAWYQQKPGKAPKLLIYDASSLENGVPSRFSGSGSGTDFTLTISSLQPEDFATYYCQQFNSYPLTFGGGTKVEIK
Solution: 41.5
